Target: T1, monomeric RANK (UniProt O35305 31-214)
T1 sequence (looked up): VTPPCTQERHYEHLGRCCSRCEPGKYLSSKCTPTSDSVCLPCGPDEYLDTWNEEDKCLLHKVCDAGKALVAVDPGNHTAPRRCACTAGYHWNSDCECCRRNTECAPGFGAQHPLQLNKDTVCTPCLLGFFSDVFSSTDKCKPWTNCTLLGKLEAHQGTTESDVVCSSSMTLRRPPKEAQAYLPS
Assay: SPR
observed-property: koff (s⁻¹)
Give a bare numeral; the unit s⁻¹ is implied.

Ask: Tell me the measured koff of RANKL Q236H (ligand, Homotrimer; limits by convention (mouse RANKL ectodomain core)) KPEAQPFAHLTINAASIPSGSHKVTLSSWYHDRGWAKISNMTLSNGKLRVNQDGFYYLYANISFRHHETSGSVPTDYLHLMVYVVKTSEKIPSSHNLMKGGSTKNWSGNSEFHFYSINVGGFFKLRAGEEISIQVSNPSLLDPDQDATYFGAFKVQDID , please.
Result: 0.023

Ask: Tell me the measured koff of RANKL K194E (ligand, Homotrimer; limits by convention (mouse RANKL ectodomain core). Species inferred: the printed numbering fits mouse) KPEAQPFAHLTINAASIPSGSHKVTLSSWYHDRGWAEISNMTLSNGKLRVNQDGFYYLYANISFRHHETSGSVPTDYLQLMVYVVKTSEKIPSSHNLMKGGSTKNWSGNSEFHFYSINVGGFFKLRAGEEISIQVSNPSLLDPDQDATYFGAFKVQDID , please.
Result: 0.101

Ask: Tell me the measured koff of RANKL K194E/Q236H/F269Y (ligand, Homotrimer; limits by convention (mouse RANKL ectodomain core)) KPEAQPFAHLTINAASIPSGSHKVTLSSWYHDRGWAEISNMTLSNGKLRVNQDGFYYLYANISFRHHETSGSVPTDYLHLMVYVVKTSEKIPSSHNLMKGGSTKNWSGNSEYHFYSINVGGFFKLRAGEEISIQVSNPSLLDPDQDATYFGAFKVQDID , please.
Result: 0.005

Ask: Tell me the measured koff of RANKL K194E/Q236H (ligand, Homotrimer; limits by convention (mouse RANKL ectodomain core)) KPEAQPFAHLTINAASIPSGSHKVTLSSWYHDRGWAEISNMTLSNGKLRVNQDGFYYLYANISFRHHETSGSVPTDYLHLMVYVVKTSEKIPSSHNLMKGGSTKNWSGNSEFHFYSINVGGFFKLRAGEEISIQVSNPSLLDPDQDATYFGAFKVQDID , please.
Result: 0.017
